Documented kcat across a set of variants
B1: glmS ribozyme (parent)
chain: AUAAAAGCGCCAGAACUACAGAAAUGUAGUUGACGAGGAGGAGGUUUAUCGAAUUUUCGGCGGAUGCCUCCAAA

variants of: B1; assay: kcat; higher = faster cleavage; RNA array; conditions: with glucosamine-6-phosphate
Fewer inactive variants are shown than the library holds.
outcome measure: kcat (s⁻¹)

>>> print(df.to_string())
     variant_annotation  unit_abbrev  sign  reported_value
 0            C16U A48U          s⁻¹     =        0.000375
 1       C34A G37U C68U          s⁻¹     <           1e-05
 2            C16U U46A          s⁻¹     =         0.00336
 3            U31A U57A          s⁻¹     =        0.000241
 4             G7A A39G          s⁻¹     =        0.000288
 5            U31C U45A          s⁻¹     =          0.0175
 6            G38A U55G          s⁻¹     <           1e-05
 7            G29A G59U          s⁻¹     =        1.01e-05
 8            A39C A53G          s⁻¹     =         0.00638
 9            C16U A53G          s⁻¹     =          0.0256
10            G51U C68G          s⁻¹     =        4.24e-05
11            A15U U31A          s⁻¹     =         0.00127
12            G13U G32C          s⁻¹     =        0.000465
13  A15U G38A C67A C68U          s⁻¹     =        2.38e-05
14            A15C A53C          s⁻¹     =         0.00123
15            U30G A64C          s⁻¹     =        5.41e-05
16            U49A C67A          s⁻¹     =        1.28e-05
17       G13U A15C U54C          s⁻¹     =        0.000132
18            A14U A48C          s⁻¹     =        7.33e-05
19            A36U A52G          s⁻¹     =        1.01e-05
20            C50G U57C          s⁻¹     =        4.02e-05
21            G13C C71G          s⁻¹     =        2.45e-05
